Source: ChEMBL document CHEMBL1139483

- TARGET: Tripeptidyl-peptidase 2 (Rattus norvegicus, UniProt Q64560)
- Sequence (Q64560 whole entry): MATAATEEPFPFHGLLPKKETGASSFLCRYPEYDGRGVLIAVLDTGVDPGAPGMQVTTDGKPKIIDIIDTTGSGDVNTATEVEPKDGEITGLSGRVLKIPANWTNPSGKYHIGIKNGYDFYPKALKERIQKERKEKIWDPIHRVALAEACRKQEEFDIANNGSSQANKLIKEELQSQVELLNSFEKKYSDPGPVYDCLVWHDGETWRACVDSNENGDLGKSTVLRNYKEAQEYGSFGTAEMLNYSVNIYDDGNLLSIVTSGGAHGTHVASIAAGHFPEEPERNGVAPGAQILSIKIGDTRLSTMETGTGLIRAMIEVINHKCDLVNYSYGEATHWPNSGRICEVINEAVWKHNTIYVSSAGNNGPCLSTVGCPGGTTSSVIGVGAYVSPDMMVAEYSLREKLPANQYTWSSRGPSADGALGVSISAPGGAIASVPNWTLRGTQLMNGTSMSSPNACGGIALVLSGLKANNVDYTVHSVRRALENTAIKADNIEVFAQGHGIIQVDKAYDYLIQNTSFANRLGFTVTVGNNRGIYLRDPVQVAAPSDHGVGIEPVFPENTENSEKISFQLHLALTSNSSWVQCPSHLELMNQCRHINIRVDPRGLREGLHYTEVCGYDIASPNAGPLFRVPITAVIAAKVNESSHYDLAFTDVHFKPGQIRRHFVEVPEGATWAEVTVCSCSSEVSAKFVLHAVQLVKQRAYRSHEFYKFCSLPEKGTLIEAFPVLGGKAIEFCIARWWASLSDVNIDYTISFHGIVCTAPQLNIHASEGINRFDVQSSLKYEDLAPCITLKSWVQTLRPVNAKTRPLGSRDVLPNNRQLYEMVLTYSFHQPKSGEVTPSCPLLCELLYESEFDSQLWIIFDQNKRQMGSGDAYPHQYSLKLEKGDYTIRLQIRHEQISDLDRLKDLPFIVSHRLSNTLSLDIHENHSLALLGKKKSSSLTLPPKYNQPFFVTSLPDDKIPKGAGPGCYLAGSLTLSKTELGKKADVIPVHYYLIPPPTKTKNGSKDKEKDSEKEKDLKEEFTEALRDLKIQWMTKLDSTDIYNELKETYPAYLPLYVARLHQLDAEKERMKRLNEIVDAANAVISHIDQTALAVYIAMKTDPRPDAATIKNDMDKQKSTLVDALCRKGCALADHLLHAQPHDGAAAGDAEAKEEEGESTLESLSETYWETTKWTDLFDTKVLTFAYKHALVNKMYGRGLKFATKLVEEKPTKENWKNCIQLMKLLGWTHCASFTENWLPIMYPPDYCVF
- TEST DETAILS: Inhibition of TPPII in rat cerebral membrane
- Assay type: cell membranes
pKi: −log10 of the molar value. Where a SMILES comes first, the peptide text is derived from it. [ ]: non-standard residue; d: D form. The star is where a group is joined. Nle = CCCC[C@H](N)C(=O)O; βNA = c1ccc2cc(N*)ccc2c1; Aze = O=C(O)[C@@H]1CCN1; Nva = CCC[C@H](N)C(=O)O; Abu = CC[C@H](N)C(=O)O; NHBn = c1ccc(CN*)cc1; NHBu = CCCCN*
Lab note: anything with pKi at or over 5 counts as 1; the rest go in -1.

Enquiry: Decide: pKi of CCCC[C@H](N)C(=O)N1CCC[C@H]1C(N)=O (H-[Nle]-Pro-NH2) >= 5?
Return: 1

Enquiry: Decide: pKi of CC[C@H](N)C(=O)N1CC[C@H]1C(N)=O (H-[Abu]-[Aze]-NH2) >= 5?
Return: -1

Enquiry: Decide: pKi of CC(C)[C@H](N)C(=O)N1CCC[C@H]1C(=O)NCc1ccccc1 (H-Val-Pro-NHBn) >= 5?
Return: 1

Enquiry: Decide: pKi of CC(C)[C@H](N)C(=O)N1CCC[C@H]1C(=O)Nc1ccc2ccccc2c1 (H-Val-Pro-βNA) >= 5?
Return: -1

Enquiry: Decide: pKi of NC(=O)[C@@H]1CCCN1C(=O)[C@@H](N)Cc1ccccc1 (H-Phe-Pro-NH2) >= 5?
Return: -1

Enquiry: Decide: pKi of CC(C)C[C@H](N)C(=O)N1CCC[C@H]1C(N)=O (H-Leu-Pro-NH2) >= 5?
Return: 1

Enquiry: Decide: pKi of CCCCNC(=O)[C@@H]1CC(Cc2ccccc2)CN1C(=O)[C@@H](N)CC (stereo partly drawn) >= 5?
Return: 1

Enquiry: Decide: pKi of CC(C)[C@H](N)C(=O)N1CCC[C@H]1C(N)=O (H-Val-Pro-NH2) >= 5?
Return: 1

Enquiry: Decide: pKi of C[C@H](N)C(=O)N1CCC[C@H]1C(N)=O (H-Ala-Pro-NH2) >= 5?
Return: 1

Enquiry: Decide: pKi of CC(C)[C@H](N)C(=O)N1CCC[C@H]1C(=O)NN1CCCCC1 >= 5?
Return: -1

Enquiry: Decide: pKi of CCC[C@H](N)C(=O)N1CCC[C@H]1C(N)=O (H-[Nva]-Pro-NH2) >= 5?
Return: 1

Enquiry: Decide: pKi of CCCCNC(=O)[C@@H]1CCCN1C(=O)[C@@H](N)CC (H-[Abu]-Pro-NHBu) >= 5?
Return: 1

Enquiry: Decide: pKi of CC[C@@H](C)NC(=O)[C@@H]1CCCN1C(=O)[C@@H](N)CC >= 5?
Return: 1
